Would you mind telling me the reported %Inh of each entry?
Tested on: PIK3CA;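 further: KINOMEscan kinase panel screen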
Details: concentration: 1 μM, replicates: in singlicate; n = 1
Put your answer as a value accompanied by its unit after it.

Value lookup for %Inh; key = O=C(Nc1c(F)cccc1F)c1cc(C(=O)c2ccccc2F)c[nH]1 [GSK1326180]
0%

Value lookup for %Inh; key = Cc1nn2c(=O)cc(N3CCO[C@H](C)C3)nc2n1Cc1cccc(Cl)c1Cl [GSK2373693]
23%

Value lookup for %Inh; key = N#Cc1cnc2cc(-c3cnc(CNCCN4CCOCC4)s3)ccc2c1Nc1ccc(Oc2ccccc2)cc1 [GW664114]
0%

Value lookup for %Inh; key = Cc1ccc(-c2ccc3occ(-c4ccc(S(C)=O)cc4)c3c2)nn1 (stereo not shown)
0%

Value lookup for %Inh; key = COC(=O)Nc1nc2cc(Oc3ccc(NC(=O)Nc4cccc(SC)c4)cc3)ccc2[nH]1.Cl [GW697999]
0%

Value lookup for %Inh; key = COc1cccc2c(-c3ccncc3)c(-c3ccc(F)cc3)nn12 [GW468513]
0%

Value lookup for %Inh; key = N#CC1(c2cccc(C(=O)Nc3cccc(Oc4ccc5nc(NC(=O)C6CC6)sc5n4)c3)c2)CC1
0%

Value lookup for %Inh; key = O=C(Nc1n[nH]c2nc(-c3cccc(O)c3)ccc12)C1CC1 [SB-711805]
0%

Value lookup for %Inh; key = CC(C)NCC(Cc1ccccc1)NC(=O)c1cc(Br)c(-c2ccnc3[nH]ccc23)s1.Cl.Cl (stereo not shown) [GSK1383281]
0%

Value lookup for %Inh; key = Cc1ccc(NC(=O)c2ccnc(N3CCCCC3)c2)cc1-c1ccc(C(=O)NCC2CC2)cc1 [GW775610]
0%

Value lookup for %Inh; key = CC(C)c1nc(-c2cccc(NS(=O)(=O)c3c(F)cccc3F)c2)c(-c2ccnc(Nc3ccc(N4CCOCC4)nc3)n2)s1.Cl [GSK1723980]
0%

Value lookup for %Inh; key = CN(C)CCNS(=O)(=O)c1ccc(-c2ccnc3[nH]ccc23)cc1 [GSK977620]
0%

Value lookup for %Inh; key = CN(C)CCOc1ccc(-c2cc(-c3ccc(Cl)c(O)c3)c(-c3ccncc3)[nH]2)cc1.Cl.Cl [SB-684387]
9%

Value lookup for %Inh; key = COc1cccc(NC(=O)NCCNc2ccnc(Nc3ccc(F)cc3)n2)c1 [GSK1379879]
0%

Value lookup for %Inh; key = Cl.Cl.NC(CNC(=O)c1cc(Br)c(-c2ccnc3[nH]ccc23)s1)c1ccccc1 (stereo not shown) [GSK1322949]
1%

Value lookup for %Inh; key = CC(C)(C)c1ccc(C(=O)Nc2cn3cc(-n4ccnc4)ccc3n2)cc1
0%

Value lookup for %Inh; key = NCCC(NC(=O)c1cc(Br)c(-c2ccnc3[nH]ccc23)s1)c1ccccc1.O=C(O)C(F)(F)F.O=C(O)C(F)(F)F (stereo not shown) [GSK1307810]
0%

Value lookup for %Inh; key = COc1cc(Nc2ccnc3cc(-c4ccncc4)ccc23)cc(OC)c1OC.Cl [GW494610]
0%

Value lookup for %Inh; key = CN(c1ccc(NC(=O)Nc2cccc(Cl)c2)cc1)c1ccnc(N)n1.Cl [GW830707]
0%

Value lookup for %Inh; key = CN(c1ccc(NC(=O)N2CCN(CCCN3CCOCC3)CC2)cc1)c1ccnc(Nc2ccc(CS(C)(=O)=O)cc2)n1.Cl [GW830899]
0%

Value lookup for %Inh; key = Nc1ncc(-c2cn[nH]c2)c2scc(-c3ccc4c(c3)CCN4C(=O)Cc3ccccc3)c12 [GSK2593067]
0%

Value lookup for %Inh; key = Nc1cccc(-c2ccc3c(N)n[nH]c3c2)c1 [GSK2193613]
0%

Value lookup for %Inh; key = Cl.Cl.NCC(NC(=O)c1cc(-c2cccnc2)c(-c2ccnc3[nH]ccc23)s1)c1ccccc1 (stereo not shown) [GSK1323434]
0%

Value lookup for %Inh; key = Fc1cc(Cl)ccc1Nc1ccnc2cc(-c3ccc(CN4CCSCC4)o3)ccc12 [GW560106]
0%

Value lookup for %Inh; key = Cc1ccc(NC(=O)c2cccc(N3CCCCC3)c2)cc1-c1ccc(C(=O)NCC2CC2)cc1 [GSK1917008]
1%

Value lookup for %Inh; key = Cn1cc(-c2ccc3c(c2)CCN3C(=O)Cc2cc(F)cc(F)c2F)c2c(N)ncnc21 [GSK2634140]
0%

Value lookup for %Inh; key = Cn1cc(-c2cnc(N)c3c(-c4ccc5c(c4)CCN5C(=O)Cc4ccccc4)csc23)cn1 [GSK2593074]
8%

Value lookup for %Inh; key = O=C(Nc1n[nH]c2nc(-c3ccccc3O)ccc12)C1CC1 [SB-711880]
0%
